Cited source: patent US11236086B2

Below is a list of entries, each paired with its recorded pIC50 value.
- ASSAYED TARGET: human ALK2 R206H (Homo sapiens, UniProt Q04771, R206H)
- Sequence (Q04771 21-509 R206H): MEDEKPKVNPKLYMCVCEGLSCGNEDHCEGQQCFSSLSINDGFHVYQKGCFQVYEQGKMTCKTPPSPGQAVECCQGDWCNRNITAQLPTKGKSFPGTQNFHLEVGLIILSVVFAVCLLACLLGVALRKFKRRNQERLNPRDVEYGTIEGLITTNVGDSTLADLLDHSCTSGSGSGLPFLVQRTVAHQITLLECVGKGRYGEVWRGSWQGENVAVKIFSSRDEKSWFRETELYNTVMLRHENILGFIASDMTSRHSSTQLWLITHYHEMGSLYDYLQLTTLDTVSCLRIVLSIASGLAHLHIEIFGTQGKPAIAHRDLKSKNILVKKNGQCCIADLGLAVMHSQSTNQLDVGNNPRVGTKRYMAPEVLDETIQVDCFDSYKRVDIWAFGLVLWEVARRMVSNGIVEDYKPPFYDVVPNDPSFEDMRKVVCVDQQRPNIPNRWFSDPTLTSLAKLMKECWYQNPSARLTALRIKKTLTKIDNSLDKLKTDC
- PROCEDURE DETAILS: Cell-based ALK2-R206H cell activity assay (Smad1-Ser463/Ser465 phosphorylation by AlphaLISA in HEK293-ALK2-R206H cells)
- CONDITION PARAMETERS: phospho-Smad1 AlphaLISA, read-out: Cell Line (Cell Assay, IC50 class)
pIC50: −log10 of the molar value.
PARAMETER: pIC50

INSERT INTO assay_data (molecule, value_measured) VALUES
  ('Cn1cc(-c2cc3c(N4CCN(C(=O)OCC(F)F)CC4)ccnc3[nH]2)cn1 [Compound 126]', '≥ 7.00'),
  ('O=C(OC1COC1)N1CCN(c2ccnc3[nH]c(-c4ccccn4)cc23)CC1 [Compound 66]', '6.30 to 7.00'),
  ('CCS(=O)(=O)c1ccc(-c2cc3c(N4CCN(C(=O)OC5COC5)CC4)ccnc3[nH]2)cc1 [Compound 436]', '≥ 7.00'),
  ('Cn1cc(-c2cc3c(N4CCN(C(=O)[C@H]5CC[C@H](C#N)CC5)CC4)ccnc3[nH]2)cn1 [Compound 278]', '≥ 7.00'),
  ('CCOC(=O)N1CCN(c2ccnc3[nH]c(-c4cnn(C)c4C(F)F)cc23)CC1 [Compound 191]', '6.30 to 7.00'),
  ('CCN1CC[C@@H](c2ccc(-c3cc4c(N5CCN(C(=O)C6CC6)CC5)ccnc4[nH]3)cc2)C(F)(F)C1 [Compound 458]', '≥ 7.00'),
  ('CCOC(=O)N1CCN(c2ccnc3[nH]c(-c4nc(C)c(C)s4)cc23)CC1 [Compound 114]', '≥ 7.00'),
  ('CC#Cc1c(-c2cnn(C)c2)[nH]c2nccc(N3CCN(C(=O)OCC)CC3)c12 [Compound 132]', '≥ 7.00'),
  ('Cn1cc(-c2cc3c(N4CCN(C(=O)O[C@H]5CC(F)(F)C5(F)F)CC4)ccnc3[nH]2)cn1 [Compound 401]', '≥ 7.00'),
  ('Cc1nc(-c2[nH]c3nccc(N4CCN(C(=O)O[C@H]5C[C@@H](F)C5)CC4)c3c2C#N)cn1C [Compound 356]', '≥ 7.00'),
  ('Cn1cc(-c2cc3c(N4CCN(C(=O)C5CCCC5)CC4)ccnc3[nH]2)cn1 [Compound 64]', '6.30 to 7.00'),
  ('CCOC(=O)N1CCN(c2ccnc3[nH]c(-c4ccccn4)c(Cl)c23)CC1 [Compound 115]', '≥ 7.00'),
  ('CCOC(=O)N1CCN(c2ccnc3[nH]c(-c4cn(C)nc4F)cc23)CC1 [Compound 51]', '6.30 to 7.00'),
  ('Cc1c(-c2cc3c(N4CCN(C(=O)OC5COC5)CC4)ccnc3[nH]2)cnn1C(C)C [Compound 305]', '6.30 to 7.00'),
  ('CCOC(=O)N1CCN(c2ccnc3[nH]c(-c4cnn(C(C)(C)C#N)c4)cc23)CC1 [Compound 213]', '6.30 to 7.00'),
  ('Cc1nc(-c2[nH]c3nccc(N4CCN(C(=O)OCC(F)F)CC4)c3c2Cl)cn1C [Compound 363]', '≥ 7.00'),
  ('CN(C)C(=O)COc1ccc(-c2cc3c(N4CCN(C(=O)C5CC5)CC4)ccnc3[nH]2)cc1 [Compound 388]', '6.30 to 7.00'),
  ('CCn1cnc(-c2cc3c(N4CCN(C(=O)OC5COC5)CC4)ccnc3[nH]2)c1 [Compound 146]', '≥ 7.00'),
  ('CCN1CCN(c2ccc(-c3cc4c(N5CCN(C(=O)C6CC6)CC5)ccnc4[nH]3)c(OC(F)(F)F)c2)CC1 [Compound 477]', '≥ 7.00'),
  ('CS(=O)(=O)N1CCc2nc(-c3cc4c(N5CCN(C(=O)OC6COC6)CC5)ccnc4[nH]3)sc2C1 [Compound 474]', '≥ 7.00'),
  ('Cn1cc(-c2cc3c(N4CCN(C(=O)C5CC5)CC4)ccnc3[nH]2)cn1 [Compound 6]', '6.30 to 7.00'),
  ('CC(C)n1cnc(-c2cc3c(N4CCN(C(=O)OC5COC5)CC4)ccnc3[nH]2)c1 [Compound 231]', '≥ 7.00'),
  ('Cn1cc(-c2cc3c(N4CCN(C(=O)O[C@H]5CCC5(F)F)CC4)ccnc3[nH]2)cn1 [Compound 268]', '≥ 7.00'),
  ('CN1CCN(c2ccc(-c3cc4c(N5CCN(C(=O)C6CC6)CC5)ccnc4[nH]3)cc2)CC1 [Compound 380]', '≥ 7.00'),
  ('Cn1cc(-c2[nH]c3nccc(N4CCN(C(=O)[C@H]5C[C@@H]5C#N)CC4)c3c2Cl)cn1 [Compound 228]', '≥ 7.00'),
  ('Cc1cc(-c2cc3c(N4CCN(C(=O)OC5COC5)CC4)ccnc3[nH]2)cs1 [Compound 169]', '≥ 7.00'),
  ('CC(C)(O)c1cnc(-c2cc3c(N4CCN(C(=O)OC5COC5)CC4)ccnc3[nH]2)s1 [Compound 377]', '≥ 7.00'),
  ('O=C(OC1COC1)N1CCN(c2ccnc3[nH]c(-c4ccc(C5(O)CCCC5)cc4)cc23)CC1 [Compound 427]', '≥ 7.00'),
  ('CCN1CCN(c2ccc(-c3cc4c(N5CCN(C(=O)C6CC6)CC5)ccnc4[nH]3)c(OC(F)F)c2)CC1 [Compound 475]', '≥ 7.00'),
  ('Cn1cc(-c2[nH]c3nccc(N4CCN(C(=O)O[C@H]5CCC5(F)F)CC4)c3c2C#N)cn1 [Compound 367]', '≥ 7.00'),
  ('CN(C)c1nc(-c2cc3c(N4CCN(C(=O)OC5COC5)CC4)ccnc3[nH]2)cn1C [Compound 310]', '≥ 7.00');
